target: hATX/ENPP2 (Homo sapiens, UniProt Q13822); assay: hATX/ENPP2 biochemical assay using 16:0-LPC as substrate (Amplex Red/choline oxidase/HRP fluorescence); conditions: hENPP2 2.5 nM, LPC (16:0) substrate
Where a name gives a salt, the structure may show the parent alone.
READOUT NAME: IC50

{"COMPOUND": "CCc1nc2ccc(-c3cnc(N4CCN(C(=O)C5(O)CC5)CC4)nc3)cn2c1N(C)c1nc(-c2ccc(F)cc2)c(C#N)s1", "ASSAY TARGET": "hATX/ENPP2 (Homo sapiens, UniProt Q13822)", "IC50": "≤ 0.02 µM"}
{"COMPOUND": "CCc1nc2ccc(-c3ccc(N4CCC(C(=O)N5CCNCC5)CC4)nc3)cn2c1N(C)c1nc(-c2ccc(F)cc2)c(C#N)s1", "ASSAY TARGET": "hATX/ENPP2 (Homo sapiens, UniProt Q13822)", "IC50": "≤ 0.02 µM"}
{"COMPOUND": "CCc1nc2ccc(-c3cnc(N4CCC(C(=O)N5CCC5)CC4)nc3)cn2c1N(C)c1nc(-c2ccc(F)cc2)c(C#N)s1", "ASSAY TARGET": "hATX/ENPP2 (Homo sapiens, UniProt Q13822)", "IC50": "≤ 0.02 µM"}
{"COMPOUND": "CCc1nc2ccc(-c3ccc(N4CCN(C(=O)C5CN(C)C5)CC4)nc3)cn2c1N(C)c1nc(-c2ccc(F)cc2)c(C#N)s1", "ASSAY TARGET": "hATX/ENPP2 (Homo sapiens, UniProt Q13822)", "IC50": "0.02 to 0.2 µM"}
{"COMPOUND": "CCc1nc2ccc(-c3cnc(N4CCN(C(=O)C5CN(C)C5)CC4)nc3)cn2c1N(C)c1nc(-c2ccc(F)cc2)c(C#N)s1 [79 (hydrochloride salt)]", "ASSAY TARGET": "hATX/ENPP2 (Homo sapiens, UniProt Q13822)", "IC50": "≤ 0.02 µM"}
{"COMPOUND": "CCc1nc2ccc(-c3cnc(N4CCN(CC(=O)N5CC[C@H](O)C5)CC4)nc3)cn2c1N(C)c1nc(-c2ccc(F)cc2)c(C#N)s1", "ASSAY TARGET": "hATX/ENPP2 (Homo sapiens, UniProt Q13822)", "IC50": "≤ 0.02 µM"}
{"COMPOUND": "CCc1nc2ccc(-c3ccc(C(=O)N4CCCC4)nc3)cn2c1N(C)c1nc(-c2ccc(F)cc2)c(C#N)s1", "ASSAY TARGET": "hATX/ENPP2 (Homo sapiens, UniProt Q13822)", "IC50": "0.02 to 0.2 µM"}
{"COMPOUND": "CCc1nc2ccc(-c3cnc(N4CCN(C(=O)N5CCCC5)CC4)nc3)cn2c1N(C)c1nc(-c2ccc(F)cc2)c(C#N)s1", "ASSAY TARGET": "hATX/ENPP2 (Homo sapiens, UniProt Q13822)", "IC50": "≤ 0.02 µM"}

Parameter requested: IC50. Apply to each item below.
1. CCc1nc2ccc(-c3ccc(N4CCC(NC(=O)C5(O)CC5)CC4)nc3)cn2c1N(C)c1nc(-c2ccc(F)cc2)c(C#N)s1
2. CCc1nc2ccc(-c3cnc(N4CCC(NC5CCNCC5)CC4)nc3)cn2c1N(C)c1nc(-c2ccc(F)cc2)c(C#N)s1 [Compound 69 formate]

1. ≤ 0.02 µM
2. ≤ 0.02 µM

----------
Give measured pIC50 for each item. Keep answers brief.
system: LPA 18:2 level in mouse plasma; experiment: In vitro LPA assay, reduction of LPA 18:2 level in mouse plasma (LC-MS/MS); type: biochemical; conditions: 2 hr at 37° C., LPA 18:2 reduction
pIC50: −log10 of the molar value. Where a name gives a salt, the structure may show the parent alone.

Some entries whose results are on file:
{"COMPOUND": "CCc1nc2ccc(-c3cnc(N4CCN(CC(=O)N5CC[C@@H](O)C5)CC4)nc3)cn2c1N(C)c1nc(-c2ccc(F)cc2)c(C#N)s1 [45 (hydrochloride salt)]", "READOUT NAME": "pIC50", "VALUE": "6.10 to 6.70"}
{"COMPOUND": "CCc1nc2ccc(-c3ccc(N4CCC(C(=O)N5CC(O)C5)CC4)nc3)cn2c1N(C)c1nc(-c2ccc(F)cc2)c(C#N)s1 [Compound 120]", "READOUT NAME": "pIC50", "VALUE": "6.10 to 6.70"}
{"COMPOUND": "CCc1nc2ccc(-c3cnc(N4CCN(C(=O)N5CC[C@H](O)C5)CC4)nc3)cn2c1N(C)c1nc(-c2ccc(F)cc2)c(C#N)s1 [Compound 44]", "READOUT NAME": "pIC50", "VALUE": "6.10 to 6.70"}
{"COMPOUND": "CCc1nc2ccc(-c3ccc(N4CCC(C(=O)N5CCC(O)CC5)CC4)nc3)cn2c1N(C)c1nc(-c2ccc(F)cc2)c(C#N)s1 [Compound 119]", "READOUT NAME": "pIC50", "VALUE": "6.10 to 6.70"}
{"COMPOUND": "CCc1nc2ccc(-c3ccc(N4CC(NC5(CO)CC5)C4)nc3)cn2c1N(C)c1nc(-c2ccc(F)cc2)c(C#N)s1 [Compound 109]", "READOUT NAME": "pIC50", "VALUE": "6.10 to 6.70"}

Parameter requested: pIC50. Apply to each item below.
1. CCc1nc2ccc(-c3ccc(N4CCN(C(=O)N5CC[C@@H](O)C5)CC4)nc3)cn2c1N(C)c1nc(-c2ccc(F)cc2)c(C#N)s1 [Compound 92]
2. CCc1nc2ccc(-c3cnc(N4CCN(CC(=O)N5CC[C@H](O)C5)CC4)nc3)cn2c1N(C)c1nc(-c2ccc(F)cc2)c(C#N)s1 [46 (hydrochloride salt)]
3. CCc1nc2ccc(-c3cnc(N4CCC(C(=O)N5CCOCC5)CC4)nc3)cn2c1N(C)c1nc(-c2ccc(F)cc2)c(C#N)s1 [Compound 127]
4. CCc1nc2ccc(-c3cnc(N4CCN(C(=O)N5CCCC5)CC4)nc3)cn2c1N(C)c1nc(-c2ccc(F)cc2)c(C#N)s1 [Compound 42]
5. CCc1nc2ccc(-c3cnc(N4CCN(C(=O)N5CC[C@@H](O)C5)CC4)nc3)cn2c1N(C)c1nc(-c2ccc(F)cc2)c(C#N)s1 [Compound 43]
6. CCc1nc2ccc(-c3ccc(N4CCC(C(=O)N5CCCC5)CC4)nc3)cn2c1N(C)c1nc(-c2ccc(F)cc2)c(C#N)s1 [Compound 113]

≥ 6.70
6.10 to 6.70
6.10 to 6.70
6.10 to 6.70
≥ 6.70
< 6.10

What does the record list as pIC50 for CCc1nc2ccc(-c3ccc(N4CCC(C(=O)N5CCNCC5)CC4)nc3)cn2c1N(C)c1nc(-c2ccc(F)cc2)c(C#N)s1 [Compound 118] ?
6.10 to 6.70

----------
molecular target: hATX/ENPP2 (Homo sapiens); test: hATX/ENPP2 biochemical assay using 16:0-LPC as substrate (Amplex Red/choline oxidase/HRP fluorescence); details: hENPP2 2.5 nM, LPC (16:0) substrate
READOUT NAME: IC50

{"LINE NOTATION": "CCc1nc2ccc(-c3cnc(CC(=O)NC4(C#N)CC4)nc3)cn2c1N(C)c1nc(-c2ccc(F)cc2)c(C#N)s1", "IC50": "20 to 200 nM"}
{"LINE NOTATION": "CCc1nc2ccc(-c3cnc(N4CC(NC5CCC5)C4)nc3)cn2c1N(C)c1nc(-c2ccc(F)cc2)c(C#N)s1", "IC50": "20 to 200 nM"}
{"LINE NOTATION": "CCc1nc2ccc(-c3cnc(N4CCC(NC(=O)[C@H]5C[C@H](O)CN5)CC4)nc3)cn2c1N(C)c1nc(-c2ccc(F)cc2)c(C#N)s1", "IC50": "≤ 20 nM"}

Parameter requested: IC50. Apply to each item below.
1. CCc1nc2ccc(-c3cnc(N4CCN(C(=O)C5CN(C6CC6)C5)CC4)nc3)cn2c1N(C)c1nc(-c2ccc(F)cc2)c(C#N)s1
2. CCc1nc2ccc(-c3cnc(C4CCN(C(=O)N5CCC5)CC4)nc3)cn2c1N(C)c1nc(-c2ccc(F)cc2)c(C#N)s1
3. CCc1nc2ccc(-c3cnc(CC(=O)N4CC[C@@H](O)C4)nc3)cn2c1N(C)c1nc(-c2ccc(F)cc2)c(C#N)s1
4. CCc1nc2ccc(-c3cnc(N4CCN(C(=O)N5CC[C@@H](O)C5)CC4)nc3)cn2c1N(C)c1nc(-c2ccc(F)cc2)c(C#N)s1
5. CCc1nc2ccc(-c3cnc(C4CCN(CC(=O)N5CCC5)CC4)nc3)cn2c1N(C)c1nc(-c2ccc(F)cc2)c(C#N)s1
6. CCc1nc2ccc(-c3cnc(CC(=O)N4CC(NC5CNC5)C4)nc3)cn2c1N(C)c1nc(-c2ccc(F)cc2)c(C#N)s1
7. CCc1nc2ccc(-c3cnc(N4CCN(C(=O)[C@H]5C[C@@H](O)CN5)CC4)nc3)cn2c1N(C)c1nc(-c2ccc(F)cc2)c(C#N)s1

1. 20 to 200 nM
2. 20 to 200 nM
3. 20 to 200 nM
4. ≤ 20 nM
5. 20 to 200 nM
6. 20 to 200 nM
7. ≤ 20 nM

Parameter requested: IC50. Apply to each item below.
1. CCc1nc2ccc(-c3cnc(N4CCC(NC(=O)C5CCNCC5)CC4)nc3)cn2c1N(C)c1nc(-c2ccc(F)cc2)c(C#N)s1
2. CCc1nc2ccc(-c3cnc(N4CCC(NC5CC5)CC4)nc3)cn2c1N(C)c1nc(-c2ccc(F)cc2)c(C#N)s1
3. CCc1nc2ccc(-c3cnc(C(=O)NC4CCNCC4)nc3)cn2c1N(C)c1nc(-c2ccc(F)cc2)c(C#N)s1
4. CCc1nc2ccc(-c3cnc(CC(=O)N4CC(NC)C4)nc3)cn2c1N(C)c1nc(-c2ccc(F)cc2)c(C#N)s1
5. CCc1nc2ccc(-c3ccc(N4CCN(C(=O)N5CC[C@@H](O)C5)CC4)nc3)cn2c1N(C)c1nc(-c2ccc(F)cc2)c(C#N)s1
6. CCc1nc2ccc(-c3cnc(CC(=O)NC)nc3)cn2c1N(C)c1nc(-c2ccc(F)cc2)c(C#N)s1
7. CCc1nc2ccc(-c3cnc(N4CCC(C(=O)N5CCCC5)CC4)nc3)cn2c1N(C)c1nc(-c2ccc(F)cc2)c(C#N)s1

≤ 20 nM
20 to 200 nM
20 to 200 nM
20 to 200 nM
≤ 20 nM
20 to 200 nM
≤ 20 nM

Parameter requested: IC50. Apply to each item below.
1. CCc1nc2ccc(-c3cnc(N4CCC(C(=O)NC5CCNCC5)CC4)nc3)cn2c1N(C)c1nc(-c2ccc(F)cc2)c(C#N)s1
2. CCc1nc2ccc(-c3cnc(NCC4CN(C(=O)C5CNC5)C4)nc3)cn2c1N(C)c1nc(-c2ccc(F)cc2)c(C#N)s1
3. CCc1nc2ccc(-c3cnc(NCC4CN(C(=O)C5(O)CC5)C4)nc3)cn2c1N(C)c1nc(-c2ccc(F)cc2)c(C#N)s1
4. CCc1nc2ccc(-c3cnc(N4CCC(NC(=O)C5(O)CC5)CC4)nc3)cn2c1N(C)c1nc(-c2ccc(F)cc2)c(C#N)s1
5. CCc1nc2ccc(-c3cnc(N4CCC(NC5CCC5)CC4)nc3)cn2c1N(C)c1nc(-c2ccc(F)cc2)c(C#N)s1
6. CCc1nc2ccc(-c3cnc(N4CCN(C(=O)C5CC5)CC4)nc3)cn2c1N(C)c1nc(-c2ccc(F)cc2)c(C#N)s1
7. CCc1nc2ccc(-c3cnc(N4CC(NC(=O)[C@@H]5C[C@@H](O)CN5)C4)nc3)cn2c1N(C)c1nc(-c2ccc(F)cc2)c(C#N)s1

["≤ 20 nM", "> 200 nM", "20 to 200 nM", "≤ 20 nM", "20 to 200 nM", "20 to 200 nM", "20 to 200 nM"]

Parameter requested: IC50. Apply to each item below.
1. CCc1nc2ccc(-c3ccc(N4CC(C(=O)N5CCC5)C4)nc3)cn2c1N(C)c1nc(-c2ccc(F)cc2)c(C#N)s1
2. CCc1nc2ccc(-c3cnc(C4CCN(C(=O)C5CC5)CC4)nc3)cn2c1N(C)c1nc(-c2ccc(F)cc2)c(C#N)s1

1: 20 to 200 nM; 2: 20 to 200 nM
